- testedOn: T1, Human MuSK (R&D Systems, cat. 10189-MK, histidine tag) (human, UniProt O15146 24-495)
- T1 construct: Bought protein; also called human monomeric MuSK-6xhis; not shown: histidine tag (6xhis)
- T1 sequence: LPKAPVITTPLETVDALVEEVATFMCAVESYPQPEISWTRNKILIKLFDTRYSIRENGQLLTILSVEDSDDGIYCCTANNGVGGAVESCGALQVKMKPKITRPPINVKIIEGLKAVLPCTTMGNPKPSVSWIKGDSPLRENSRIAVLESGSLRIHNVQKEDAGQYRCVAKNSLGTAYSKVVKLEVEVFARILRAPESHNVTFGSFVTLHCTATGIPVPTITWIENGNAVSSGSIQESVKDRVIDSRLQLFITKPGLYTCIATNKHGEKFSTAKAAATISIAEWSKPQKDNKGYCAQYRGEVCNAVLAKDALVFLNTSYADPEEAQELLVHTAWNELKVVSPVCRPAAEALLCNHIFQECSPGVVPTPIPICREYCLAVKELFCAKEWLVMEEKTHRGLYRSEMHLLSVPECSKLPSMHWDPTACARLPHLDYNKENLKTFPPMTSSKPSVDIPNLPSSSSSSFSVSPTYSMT
- testDescription: SPR (Biacore), antibody captured on anti-hFc chip; 5 nM; dissociation pH 5.5
quantityMeasured: koff (s⁻¹)
Give just the numeric value; s⁻¹ need not be written.

input: Please give the documented koff of 3D9b (antibody, human IgG1, kappa, L234A L235A, V domains shown) VH: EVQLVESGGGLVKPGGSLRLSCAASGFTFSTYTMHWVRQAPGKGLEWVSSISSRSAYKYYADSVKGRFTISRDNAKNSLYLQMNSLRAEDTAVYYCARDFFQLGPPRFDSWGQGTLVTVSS VL: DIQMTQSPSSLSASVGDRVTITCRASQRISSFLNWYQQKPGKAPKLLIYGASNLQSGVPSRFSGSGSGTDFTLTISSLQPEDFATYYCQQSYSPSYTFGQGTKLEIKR
output: 4e-05

input: Provide measured koff value, entry: 3D10a (antibody, human IgG1, kappa, L234A L235A, V domains shown) VH: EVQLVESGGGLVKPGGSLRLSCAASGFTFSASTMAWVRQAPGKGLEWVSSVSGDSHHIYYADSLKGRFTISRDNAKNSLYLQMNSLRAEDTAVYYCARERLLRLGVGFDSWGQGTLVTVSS VL: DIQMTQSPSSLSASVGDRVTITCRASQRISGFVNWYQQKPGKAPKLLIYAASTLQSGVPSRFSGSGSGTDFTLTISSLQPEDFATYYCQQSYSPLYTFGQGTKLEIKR
output: 0.0001

input: Look up koff of 4D3 (antibody, human IgG1, kappa, L234A L235A, V domains shown) VH: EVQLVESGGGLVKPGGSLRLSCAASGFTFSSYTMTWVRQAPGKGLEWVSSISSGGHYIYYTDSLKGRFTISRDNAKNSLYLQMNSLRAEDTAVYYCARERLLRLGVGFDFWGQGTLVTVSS VL: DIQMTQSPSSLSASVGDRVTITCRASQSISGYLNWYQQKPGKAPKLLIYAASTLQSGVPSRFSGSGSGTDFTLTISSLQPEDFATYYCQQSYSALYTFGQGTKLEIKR and report it.
output: 0.00018

input: Give the reported value of koff for this record: 3F6c (antibody, human IgG1, kappa, L234A L235A, V domains shown) VH: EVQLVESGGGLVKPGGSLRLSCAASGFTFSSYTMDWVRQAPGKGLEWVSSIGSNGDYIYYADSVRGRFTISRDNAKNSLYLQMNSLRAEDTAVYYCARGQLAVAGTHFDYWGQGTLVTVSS VL: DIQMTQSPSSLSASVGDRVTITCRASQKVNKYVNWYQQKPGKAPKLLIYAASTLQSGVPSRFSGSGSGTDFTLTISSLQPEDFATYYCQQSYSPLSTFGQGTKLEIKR
output: 0.0002
